- targetOfAssay: D168A mutant of the HCV NS3/4A 1b protease enzyme (Hepatitis C virus genotype 1b, UniProt P26663, D1194A)
- Construct: 10× stocks of NS3/4A protease enzyme from Bioenza (Mountain View, Calif.); purchased Bioenza (Mountain View, Calif.)
- testDetails: HCV Protease FRET Assay (IC50_APP), D168A mutant
- Assay type: biochemical
- measurementSetup: apparent IC50, D168A mutant; read-out: IC50_APP, HCV D168A
propertyLabel: IC50

Determine its reported IC50: "C=C[C@@H]1C[C@]1(NC(=O)[C@@H]1C[C@@H](Oc2nccc3cc(OC)ccc23)CN1C(=O)[C@@H](NC(=O)OC(C)(C)C)C(C)(C)C(=O)C=C(C)C)C(=O)NS(=O)(=O)C1CC1"
100 to 1000 nM

Determine its reported IC50: "C=CC(=O)N(C)C[C@H](NC(=O)OC1CCCC1)C(=O)N1C[C@H](Oc2cc(-c3ccccc3)nc3cc(OC)ccc23)C[C@H]1C(=O)N[C@]1(C(=O)NS(=O)(=O)C2CC2)C[C@H]1C=C"
100 to 1000 nM

Determine its reported IC50: "C=C[C@@H]1C[C@]1(NC(=O)[C@@H]1C[C@@H](Oc2cc(-c3ccccc3)nc3cc(OC)ccc23)CN1C(=O)[C@H](CCC(=O)N[C@@H]1C(=O)O[C@@H]1C)NC(=O)OC(C)(C)C)C(=O)NS(=O)(=O)C1CC1"
< 10 nM

Determine its reported IC50: "C=C[C@@H]1C[C@]1(NC(=O)[C@@H]1C[C@@H](Oc2cc(-c3ccccc3)nc3cc(OC)ccc23)CN1C(=O)CNC(=O)c1ccc([N+](=O)[O-])cc1F)C(=O)NS(=O)(=O)c1ccccc1"
1000 to 10000 nM

Determine its reported IC50: "C=C[C@@H]1C[C@]1(NC(=O)[C@@H]1C[C@@H](Oc2nccc3cc(OC)ccc23)CN1C(=O)[C@H](CCC(=O)/C(C)=C/C)NC(=O)OC(C)(C)C)C(=O)NS(=O)(=O)C1CC1"
100 to 1000 nM

Determine its reported IC50: "C=CC(=O)N[C@@H](C(=O)N1C[C@H](Oc2cc(-c3ccccc3)nc3cc(OC)ccc23)C[C@H]1C(=O)N[C@]1(C(=O)NS(=O)(=O)C2CC2)C[C@H]1C=C)C(C)C"
100 to 1000 nM

Determine its reported IC50: "C=CC(=O)N[C@H](C)C(=O)N1C[C@H](Oc2cc(-c3ccccc3)nc3cc(OC)ccc23)C[C@H]1C(=O)N[C@]1(C(=O)NS(=O)(=O)C2CC2)C[C@H]1C=C"
10 to 100 nM

Determine its reported IC50: "C=CC(=O)NC[C@@H]1NC(=O)OCCC/C=C/c2ccc3ccnc(c3c2)O[C@@H]2C[C@@H](C(=O)N[C@]3(C(=O)NS(=O)(=O)C4CC4)C[C@H]3C=C)N(C2)C1=O"
100 to 1000 nM

Determine its reported IC50: "C=CC(=O)N(C)C[C@H](NC(=O)c1cnccn1)C(=O)N1C[C@H](Oc2cc(-c3ccccc3)nc3cc(OC)ccc23)C[C@H]1C(=O)N[C@]1(C(=O)NS(=O)(=O)C2CC2)C[C@H]1C=C"
1000 to 10000 nM

---

- Tested on: HCV RNA replicon in cell line ET (luc-ubi-neo/ET), human Huh7 hepatoma
- testDetails: Method A: HCV RNA replicon antiviral assay (luciferase, ET cell line)
- Assay type: cell-based, Hepatitis C virus
- measurementSetup: Hepatitis C virus, Huh-7; Replicon, assay of Example 22; 72 hr; read-out: Inhibition, Replicon
pIC50: −log10 of the molar value.
propertyLabel: pIC50

Determine its reported pIC50: "C=C[C@@H]1C[C@]1(NC(=O)[C@@H]1C[C@@H](Oc2cc(-c3ccccc3)nc3cc(OC)ccc23)CN1C(=O)[C@H](CN(C)C(=O)C(=C)C)NC(=O)OC(C)(C)C)C(=O)NS(=O)(=O)c1ccccc1"
6.00 to 7.00

Determine its reported pIC50: "C=C[C@@H]1C[C@]1(NC(=O)[C@@H]1C[C@@H](Oc2cc(-c3ccccc3)nc3cc(OC)ccc23)CN1C(=O)[C@H](Cn1sc2ccccc2c1=O)NC(=O)OC(C)(C)C)C(=O)NS(=O)(=O)c1ccccc1"
6.00 to 7.00

Determine its reported pIC50: "C=C[C@@H]1C[C@]1(NC(=O)[C@@H]1C[C@@H](Oc2cc(-c3ccccc3)nc3cc(OC)ccc23)CN1C(=O)[C@H](CCNC(=O)CCl)NC(=O)OC(C)(C)C)C(=O)NS(=O)(=O)c1ccccc1"
7.00 to 8.00

Determine its reported pIC50: "C=C[C@@H]1C[C@]1(NC(=O)[C@@H]1C[C@@H](Oc2cc(-c3ccccc3)nc3cc(OC)ccc23)CN1C(=O)CNC(=O)C#CC)C(=O)NS(=O)(=O)C1CC1"
5.00 to 6.00

Determine its reported pIC50: "C=C[C@@H]1C[C@]1(NC(=O)[C@@H]1C[C@@H](Oc2cc(-c3ccccc3)nc3cc(OC)ccc23)CN1C(=O)C1(NC(=O)OC(C)(C)C)CCN(C(=O)CCl)CC1)C(=O)NS(=O)(=O)c1ccccc1"
< 5.00
